The measurements presented in this section are drawn from patent US20190241671A1.

ASSAY_TARGET: T1, CD19 antigen on Daudi lymphoma cells (human, UniProt P15391 20-556)
T1 construct: whole, on cells; also called Daudi cells
T1 sequence (looked up): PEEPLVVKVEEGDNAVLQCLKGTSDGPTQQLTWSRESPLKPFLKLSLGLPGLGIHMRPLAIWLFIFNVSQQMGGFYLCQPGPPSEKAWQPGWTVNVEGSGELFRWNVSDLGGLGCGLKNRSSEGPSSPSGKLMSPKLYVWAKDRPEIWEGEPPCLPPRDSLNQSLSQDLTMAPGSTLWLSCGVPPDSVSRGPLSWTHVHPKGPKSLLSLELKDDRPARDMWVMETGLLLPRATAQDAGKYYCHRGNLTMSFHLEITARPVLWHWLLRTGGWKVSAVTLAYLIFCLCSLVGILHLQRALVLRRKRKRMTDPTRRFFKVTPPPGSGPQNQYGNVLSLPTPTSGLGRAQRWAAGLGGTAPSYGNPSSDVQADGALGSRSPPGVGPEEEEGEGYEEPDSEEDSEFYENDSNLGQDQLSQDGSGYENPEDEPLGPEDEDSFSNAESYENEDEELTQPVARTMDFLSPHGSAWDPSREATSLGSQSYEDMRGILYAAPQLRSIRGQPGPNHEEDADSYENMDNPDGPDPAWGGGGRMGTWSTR
PROTOCOL: FACS competition on Daudi cells; unlabeled antibody 800 ng/ml (8x) vs competitor biotin-B4 VH0/VK0 100 ng/ml

| BINDER | READOUT_UNIT | % inhibition of labeled B4 binding |
| --- | --- | --- |
| B4 VHv1/VKv2 antibody (antibody, V domains shown) VH: QVQLQQPGAEVVKPGASVRLSCETSGYTFTSNWMHWVKQRPDQGLEWIGEIDPSDSYTNYNQKFKGKAELTVDKSSSTAYMEVSDLTSEDSAVYYCARGSNPYYYAMDYWGQGTSVTVSS VL: DIVLTQSPATLSASPGEKVTMTCSASSGVNYMHWYQQKPGTSPKRWIYDTSKLDSGVPARFSGSGSGTSYSLTISSMEAEDAATYYCHQRGSYTFGGGTKLEIK | % | 56 |
